Data origin, for the record: paper PMC4286194

Examples of compounds with documented EC50 follow.
System: Bone-marrow-derived macrophages
Assay: IL-10 secretion (BIOPLEX) in LPS-stimulated macrophages
Type: cell-based, mouse
Conditions: Mus musculus, Macrophage, read-out: EC50 for elevation of IL-10 secretion
// units = nM; emit number, no label

Which value of EC50 has been reported for Cc1nc(Nc2ncc(C(=O)Nc3c(C)cccc3Cl)s2)cc(N2CCN(CCO)CC2)n1 in the records?
110

Which value of EC50 has been reported for COc1cc(Nc2c(C#N)cnc3cc(OCCCN4CCN(C)CC4)c(OC)cc23)c(Cl)cc1Cl in the records?
510
